protocolText: Displacement of [3H]-DTG from sigma2 receptor in guinea pig brain membranes by scintillation counting
Format: cell membranes, Cavia porcellus, Cell membrane
readoutLabel: Ki (nM)
The reply should be a number in nM, with the unit left off.

(Q) What does the data say about its Ki? Entry: OC(CCCN1CCC(O)(c2ccc(Cl)cc2)CC1)c1ccc(F)cc1 (racemic) [HYDROXYHALOPERIDOL]
(A) 2.4

(Q) What does the data say about its Ki? Entry: CCCC(CCC)C(=O)OC(CCCN1CCC(O)(c2ccc(Cl)cc2)CC1)c1ccc(F)cc1 (racemic)
(A) 124

----------
protocolText: Solubility in water incubated for 1 hr by HPLC analysis
Assay type: physicochemical
readoutLabel: solubility at 1 h (µg/mL)
The reply should be a number in µg/mL, with the unit left off.

(Q) What does the data say about its solubility at 1 h? Entry: CCCC(CCC)C(=O)OC(CCCN1CCC(O)(c2ccc(Cl)cc2)CC1)c1ccc(F)cc1 (racemic)
(A) 1400

----------
readoutLabel: pKi
Please keep in mind that pKi is minus log10 of the molar concentration; only the number is needed.

(Q) Report pKi for OC(CCCN1CCC(O)(c2ccc(Cl)cc2)CC1)c1ccc(F)cc1 (racemic) [HYDROXYHALOPERIDOL] tested on D(3) dopamine receptor (Rattus norvegicus, UniProt P19020).
Sequence (P19020 whole entry): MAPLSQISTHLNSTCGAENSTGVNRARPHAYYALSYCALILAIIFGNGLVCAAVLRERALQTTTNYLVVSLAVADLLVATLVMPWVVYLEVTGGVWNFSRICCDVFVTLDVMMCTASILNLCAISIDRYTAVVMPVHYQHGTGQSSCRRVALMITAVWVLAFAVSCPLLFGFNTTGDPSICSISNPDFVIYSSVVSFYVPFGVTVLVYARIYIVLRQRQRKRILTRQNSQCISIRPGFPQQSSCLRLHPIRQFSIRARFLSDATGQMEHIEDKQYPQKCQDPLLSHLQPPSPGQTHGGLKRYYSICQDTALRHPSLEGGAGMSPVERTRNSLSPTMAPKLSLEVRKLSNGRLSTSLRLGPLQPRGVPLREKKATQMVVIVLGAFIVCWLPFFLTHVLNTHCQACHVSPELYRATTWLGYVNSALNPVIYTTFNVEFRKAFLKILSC
(A) 5.99

----------
I'd be grateful if you could share measured IC50 for these entries.
protocolText: Cytotoxicity in HREC assessed as reduction in cell viability incubated for 96 hrs by MTT assay
Format: functional
assaySetup: Homo sapiens, read-out: pIC50 (converted)
The reply should be a number in µM, with the unit left off.

(Q) What does the data say about its IC50? Entry: CCCC(CCC)C(=O)OC(CCCN1CCC(O)(c2ccc(Cl)cc2)CC1)c1ccc(F)cc1 (racemic)
(A) 10.6

(Q) What does the data say about its IC50? Entry: OC(CCCN1CCC(O)(c2ccc(Cl)cc2)CC1)c1ccc(F)cc1 (racemic) [HYDROXYHALOPERIDOL]
(A) 56.6

(Q) What does the data say about its IC50? Entry: CCCC(CCC)C(=O)O
(A) 1480

(Q) What does the data say about its IC50? Entry: O=C(CCCN1CCC(O)(c2ccc(Cl)cc2)CC1)c1ccc(F)cc1
(A) 2.29

----------
assayTarget: D(2) dopamine receptor (Rattus norvegicus, UniProt P61169)
Sequence (P61169 whole entry): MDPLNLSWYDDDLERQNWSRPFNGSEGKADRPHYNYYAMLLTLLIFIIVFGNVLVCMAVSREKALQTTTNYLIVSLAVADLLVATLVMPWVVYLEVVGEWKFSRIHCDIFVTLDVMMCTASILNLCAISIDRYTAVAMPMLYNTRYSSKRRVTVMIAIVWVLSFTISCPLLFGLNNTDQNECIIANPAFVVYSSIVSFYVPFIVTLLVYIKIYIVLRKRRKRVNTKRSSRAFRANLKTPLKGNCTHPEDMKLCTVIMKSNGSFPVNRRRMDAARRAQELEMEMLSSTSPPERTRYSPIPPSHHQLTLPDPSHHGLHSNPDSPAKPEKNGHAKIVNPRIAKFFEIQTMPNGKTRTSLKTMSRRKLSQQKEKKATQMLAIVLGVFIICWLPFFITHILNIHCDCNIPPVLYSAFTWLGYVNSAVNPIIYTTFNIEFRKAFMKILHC
protocolText: Displacement of [3H]-spiperone from DRD2 in rat striatum by scintillation counting
Format: tissue-based
pKi: −log10 of the molar value.
readoutLabel: pKi

(Q) What does the data say about its pKi? Entry: CCCC(CCC)C(=O)OC(CCCN1CCC(O)(c2ccc(Cl)cc2)CC1)c1ccc(F)cc1 (racemic)
(A) < 5.30
